test system: Hepatitis C virus; assay: Antiviral activity against HCV 2a infected in human Huh7.5 cells assessed inhibition of viral replication after 3 days by luciferase assay; format: functional, Hepacivirus hominis, genotype 2a, Huh-7
READOUT NAME: TC50

# TC50 of CCOC(=O)c1c(C)n(C)c2ccc(CN3CCCC3)cc12 = >50 µM

# TC50 of CCOC(=O)c1c(CS(=O)(=O)c2ccccc2)n(C)c2ccc(CN3CCCNCC3)cc12 = >50 µM

# TC50 of CCOC(=O)c1c(CS(=O)(=O)c2ccccc2)n(C)c2ccc(CN3CCOCC3)cc12 = >50 µM

# TC50 of CCOC(=O)c1c(CS(=O)(=O)c2ccccc2)n(C)c2ccc(Cn3ccnc3)cc12 = 18 µM

# TC50 of CCOC(=O)c1c(C)n(C)c2ccc(CN(C)C)cc12 = >50 µM

# TC50 of CCOC(=O)c1c(CS(=O)(=O)c2ccccc2)n(C)c2ccc(CN(C)C)cc12 = >50 µM

# TC50 of CCOC(=O)c1c(CS(=O)(=O)c2ccccc2)n(C)c2ccc(CN3CCN(C)CC3)cc12 = >50 µM

# TC50 of CCOC(=O)c1c(CS(=O)(=O)c2ccccc2)n(C)c2ccc(CN3CCCC3)cc12 = >50 µM

# TC50 of CCOC(=O)c1c(CSc2ccccc2)n(C)c2cc(Br)c(O)c(CN(C)C)c12 [UMIFENOVIR] = 15 µM
